Values from patent US9365522B2

Item-by-item account of IC50
Target: ligand binding domain of human ROR gamma (Homo sapiens, UniProt P51449)
Construct: NM_001001523; expressed in transfected cells; host or cells: HEK293T
Sequence (P51449 268-518): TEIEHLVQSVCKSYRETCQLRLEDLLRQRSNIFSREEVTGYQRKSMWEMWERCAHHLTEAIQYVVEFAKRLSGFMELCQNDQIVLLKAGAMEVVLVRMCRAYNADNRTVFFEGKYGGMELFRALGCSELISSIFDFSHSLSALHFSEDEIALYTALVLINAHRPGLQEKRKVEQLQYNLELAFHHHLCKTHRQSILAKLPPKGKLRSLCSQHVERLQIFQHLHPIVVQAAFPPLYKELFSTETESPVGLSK
Assay method text: ROR gamma reporter gene assay (GAL4-RORγ LBD luciferase, Dual-Glo)
Assay type: cell-based
Assay setup: HEK293T cells transfected with pM-ROR gamma, 8 concentrations 3.5 nM to 10.5 μM, 24 h incubation; read-out: result (pIC50, inhibition of RORγ transcriptional activity) (converted)
Quantity measured: IC50 (pM)

molecular_string=O=C(CN(C(=O)c1cnn([C@H]2CC[C@H](C(=O)O)CC2)c1C(F)(F)F)C1CCC2(CC1)CC2)c1c(Cl)cncc1Cl measured_number=66100
molecular_string=O=C(CN(Cc1ncc(Cl)s1)C(=O)c1cnn([C@H]2CC[C@H](C(=O)O)CC2)c1C(F)(F)F)c1c(Cl)cncc1Cl measured_number=148000
molecular_string=O=C(CN(Cc1ccc(F)cc1)C(=O)c1cnn([C@H]2CC[C@@](F)(C(=O)O)CC2)c1C(F)(F)F)c1c(Cl)cncc1Cl measured_number=661000
molecular_string=C[C@]1(C(=O)O)CC[C@H](n2ncc(C(=O)N(CC(=O)c3c(Cl)cncc3Cl)CC3(F)CCCC3)c2C(F)(F)F)CC1 measured_number=11200
molecular_string=O=C(CN(Cc1ccc(F)cc1)C(=O)c1cnn(C23CCC(C(=O)O)(CC2)CC3)c1C(F)(F)F)c1c(Cl)cncc1Cl measured_number=15500
molecular_string=CC1(C)[C@@H]2C[C@H](N(C[C@H](O)c3sccc3Cl)C(=O)c3cnn([C@H]4CC[C@](C)(C(=O)O)CC4)c3C(F)(F)F)C[C@@H]21 measured_number=891000
